tested on: CAPAN-1 (Pancreatic Carcinoma); experiment: combination Emax (second highest fraction inhibited in the dose matrix, 72 h); higher = more inhibition; extreme values may be limits of the assay
Quick list: combination Emax per entry.
Form rule: numeric answer, no unit written next to it.

Illustrative cases are given below, each with its answer.
[
  {
    "MOLECULE": "NC1(C(=O)N[C@@H](CCO)c2ccc(Cl)cc2)CCN(c2ncnc3[nH]ccc23)CC1 [Capivasertib] + COc1nnc2ccc(N3CCC(c4ccc(OCCN5CCN(C)C(=O)[C@H]5C)cc4)CC3)nn12 [AZD5153] (first compound max 10 µM, 7x7, partner max 1 µM)",
    "combination Emax": 0.358
  },
  {
    "MOLECULE": "C=CCn1c(=O)c2cnc(Nc3ccc(N4CCN(C)CC4)cc3)nc2n1-c1cccc(C(C)(C)O)n1 [AZD1775] + C[C@@H]1COCCN1C2=NC(=NC(=C2)C3(CC3)[S@](=N)(=O)C)C4=C5C=CNC5=NC=C4 [AZD6738] (first compound max 1 µM, partner max 10 µM)",
    "combination Emax": 0.49
  },
  {
    "MOLECULE": "COc1cccc(OCCCN)c1-c1cc(Nc2cnc(C#N)cn2)n[nH]1 [Prexasertib] + Cc1cc2ncnn2cc1Nc1ncc2c(n1)n(C1CCOCC1)c(=O)n2C [AZD7648] (first compound max 1 µM, 7x7, partner max 10 µM)",
    "combination Emax": 0.585
  },
  {
    "MOLECULE": "Cc1cc2ncnn2cc1Nc1ncc2c(n1)n(C1CCOCC1)c(=O)n2C [AZD7648] + C[C@@H]1COCCN1C2=NC(=NC(=C2)C3(CC3)[S@](=N)(=O)C)C4=C5C=CNC5=NC=C4 [AZD6738] (first compound max 10 µM, 7x7, partner max 10 µM)",
    "combination Emax": 0.495
  },
  {
    "MOLECULE": "CC1(C)CCC(CN2CCN(c3ccc(C(=O)NS(=O)(=O)c4ccc(NCC5CCOCC5)c([N+](=O)[O-])c4)c(Oc4cnc5[nH]ccc5c4)c3)CC2)=C(c2ccc(Cl)cc2)C1 [Venetoclax] + C[C@@H](Nc1cc(F)cc(F)c1)c1cc(C(=O)N(C)C)cc2c(=O)cc(N3CCOCC3)oc12 [AZD8186] (first compound max 1 µM, 7x7, partner max 3 µM)",
    "combination Emax": 0.178
  }
]

Consider the record given below.
Ask: Param item = Cc1c2c(nn1C)CSCc1cc(n(C)n1)CSc1cc(c3ccccc3c1)OCCCc1c(C(=O)O)n(C)c3c-2c(Cl)ccc13 [AZD5991] + CS(=O)(=O)CCNCc1ccc(-c2ccc3ncnc(Nc4ccc(OCc5cccc(F)c5)c(Cl)c4)c3c2)o1 [Lapatinib] (first compound max 1 µM, 7x7, partner max 10 µM) ; retrieve measured combination Emax.
Reply: 0.261

---

Quick list: combination Emax per entry.
tested on: RPMI-6666 (Non-Cancerous); assay: combination Emax (second highest fraction inhibited in the dose matrix, 72 h); higher = more inhibition; extreme values may be limits of the assay
Form rule: numeric answer, no unit written next to it.

[
  {
    "COMPOUND": "Cc1cc2ncnn2cc1Nc1ncc2c(n1)n(C1CCOCC1)c(=O)n2C [AZD7648] + O=C(c1cc(Cc2n[nH]c(=O)c3ccccc23)ccc1F)N1CCN(C(=O)C2CC2)CC1 [Olaparib] (first compound max 10 µM, 7x7, partner max 10 µM)",
    "ASSAY READOUT": "combination Emax",
    "ENDPOINT VALUE": 0.584
  }
]

Consider the record given below.
Ask: Param item = CC1(C)CCC(CN2CCN(c3ccc(C(=O)NS(=O)(=O)c4ccc(NCC5CCOCC5)c([N+](=O)[O-])c4)c(Oc4cnc5[nH]ccc5c4)c3)CC2)=C(c2ccc(Cl)cc2)C1 [Venetoclax] + CS(=O)(=O)CCNCc1ccc(-c2ccc3ncnc(Nc4ccc(OCc5cccc(F)c5)c(Cl)c4)c3c2)o1 [Lapatinib] (first compound max 1 µM, 7x7, partner max 10 µM) ; retrieve measured combination Emax.
Reply: 0.55
